system: HOP-92; assay: NCI tumour cell line growth inhibition, 48 h
Activity calls are given as the source filed them. No stated cut-off is given here; in the data, active = GI50 up to about 1.1 µM and inactive = higher.
Outcome field: choose from active, inactive

These solved cases illustrate the format of a correct answer.
O=c1[nH]c(=O)n(C2OC(CO)C(O)C2O)cc1OCCc1ccccc1 (stereo not given) ... inactive
Cc1cc(-c2ccccc2)nc(Nc2cc3ccccc3[nH]2)n1 ... inactive
CCOC(=O)c1cc2c3c(c(O)c(OC)c2s1)N(C(=O)c1cc2c4c(c(O)c(OC)c2s1)N(C(C)=O)CC4)CC3 ... inactive
c1ccc2c(-c3cnc(-c4c[nH]c5ccccc45)cn3)c[nH]c2c1 ... inactive

Next compound, please.
Could you please tell me the result logged for COC12C=C(C)C(CC1)CC2C(=O)O (stereo not given) in this assay?
inactive
